# Test system: KM-20L2
# assay.comment: NCI tumour cell line growth inhibition, 48 h
Activity calls are given as the source filed them. No stated cut-off is given here; in the data, active = GI50 up to about 1.1 µM and inactive = higher.
measure.name: GI50

The molecule O=C1c2cc3c(cc2[C@@H]2C(O)[C@H]4O[C@H]4C4CCN1C42)OCO3 (stereo not given in full) on KM-20L2: GI50 was > 37.5 µM (inactive)

The molecule `CC1(C)CCc2cc3c(cc2O1)OCCC3=O` on KM-20L2: GI50 was > 100 µM (inactive)

The molecule COC(=O)C1=C(c2ccc(OC)c(OC)c2)OC(c2cc(OC)c(OC)c(OC)c2)C1 (stereo not given) on KM-20L2: GI50 was > 100 µM (inactive)

The molecule `Oc1cc(-c2c[nH]c3ccccc23)nc2cc3c(cc12)OCO3` on KM-20L2: GI50 was > 100 µM (inactive)

The molecule `C=C1C[C@]23C[C@@]1(O)CC[C@H]2[C@@]12C=C[C@H](O)[C@@](C)(C(=O)O1)[C@H]2[C@@H]3C(=O)O` on KM-20L2: GI50 was > 100 µM (inactive)
